system: staphylococcus aureus; assay: Surface Antimicrobial Kill Testing Method, activity normalized to triclosan internal standard (Gram positive); format: cell-based; details: 0.5 wt % compound, 3 wt % DEGBE, 1 wt % EcoSurf EH-9, 95.5 wt % reverse osmosis water, pH 7
Listing of entries alongside the reported Gram Positive Referenced Microbial Activity.
I'd appreciate a reply containing only the number, no unit.

Here's what some known entries look like.
- compound: "CCCCCCOC(=O)/C=C/c1cc[n+](C)cc1.[I-] [Synthetic Example 4]"
  recordedValue: 1.2
- compound: "CCCCCCOC(=O)/C=C/c1ccc[n+](C)c1.[I-] [Synthetic Example 3]"
  recordedValue: 0.21

Below: the item to evaluate.
Form: compound = CCCCCCOC(=O)/C=C/c1cccnc1 [Synthetic Example 1, hexyl 3-(3-pyridyl)acrylate] ; Gram Positive Referenced Microbial Activity = 0.11

* * *

system: staphylococcus aureus; assay: Surface Antimicrobial Kill Testing Method, activity normalized to triclosan internal standard (Gram positive); format: cell-based; settings: 0.5 wt % compound, 3 wt % DEGBE, 1 wt % EcoSurf EH-9, 95.5 wt % reverse osmosis water, pH 7
propertyMeasured: Gram Positive Referenced Microbial Activity

As a guide, the following entries are already answered.
- molecule: "CCCCCCCC[n+]1ccc(/C=C/C(=O)OCCCCCC)cc1.[Br-] [Synthetic Example 8]"
  recordedValue: ">1.33"
- molecule: "CCCCCCOC(=O)/C=C/c1ccc[n+](CCCCCC)c1.[Br-] [Synthetic Example 5]"
  recordedValue: ">1.42"
- molecule: "CCCCCCCC[n+]1cccc(/C=C/C(=O)OCCCCCC)c1.[Br-] [Synthetic Example 7]"
  recordedValue: ">1.42"

// below: Gram Positive Referenced Microbial Activity requested for another molecule
Observed Gram Positive Referenced Microbial Activity on staphylococcus aureus, entry CCCCCCOC(=O)/C=C/c1cc[n+](CCCCCC)cc1.[Br-] [Synthetic Example 6] , equals >1.39
